Test: Brain to plasma permeability coefficient, Kp in Sprague-Dawley rat at 30 mg/kg, po after 2 hrs
Assay type: ADME, organism-based
Overview of recorded Kp at 2 h for various compounds
Form rule: numeric answer, no unit written next to it.

[
  {
    "smiles string": "CCOc1cc(N2CC(n3c(=O)[nH]c4cc(C(F)(F)F)ccc43)C2)ncc1Cl",
    "Kp at 2 h": 0.14
  }
]

# Kp at 2 h of CCOc1cc(N2CC(n3c(=O)[nH]c4ccccc43)C2)ncc1Cl = 0.36

# Kp at 2 h of CCNc1cc(N2CC(n3c(=O)[nH]c4ccccc43)C2)nnc1Cl = 0.03

###

Overview of recorded concentration at 4 h for various compounds
Assay: Drug concentration in Sprague-Dawley rat brain at 30 mg/kg, po after 4 hrs
Type: ADME, organism-based
Conditions: read-out: Drug uptake
# unit: ng/g | format: bare number

Known results for compounds:
[
  {
    "smiles string": "CCOc1cc(N2CC(n3c(=O)[nH]c4ccccc43)C2)ncc1Cl",
    "concentration at 4 h (ng/g)": 2370
  },
  {
    "smiles string": "CCOc1cc(N2CC(n3c(=O)[nH]c4cc(C(F)(F)F)ccc43)C2)ncc1Cl",
    "concentration at 4 h (ng/g)": 996
  }
]

# concentration at 4 h of CCNc1cc(N2CC(n3c(=O)[nH]c4ccccc43)C2)nnc1Cl = 31

###

Overview of recorded metabolised at 0.25 h, 5 µM for various compounds
Assay: Stability in rat liver microsomes assessed as percentage of compound metabolized at 5 uM after 15 mins
Type: ADME, Microsome
Settings: liver microsomes, read-out: Drug metabolism
# unit: % | format: bare number

Known results for compounds:
[
  {
    "smiles string": "O=C1Nc2ccc(Br)cc2C12CCN(c1ccc(C(F)(F)F)nn1)CC2",
    "metabolised at 0.25 h, 5 µM / %": 20
  },
  {
    "smiles string": "O=C1Nc2ccc(Br)cc2C12CCN(c1ccc(Cl)nn1)CC2",
    "metabolised at 0.25 h, 5 µM / %": 25
  },
  {
    "smiles string": "CCOc1cc(N2CC(n3c(=O)[nH]c4cc(C(F)(F)F)ccc43)C2)ncc1Cl",
    "metabolised at 0.25 h, 5 µM / %": 12
  }
]

# metabolised at 0.25 h, 5 µM of CCNc1cc(N2CCC3(CC2)C(=O)Nc2ccc(Br)cc23)nnc1Cl = 65

# metabolised at 0.25 h, 5 µM of CCOc1cc(N2CCC3(CC2)C(=O)Nc2ccc(Br)cc23)nnc1C(F)(F)F = 43

# metabolised at 0.25 h, 5 µM of CCNc1cc(N2CC(n3c(=O)[nH]c4ccc(Br)cc43)C2)nnc1Cl = 26

# metabolised at 0.25 h, 5 µM of O=C1Nc2ccc(F)cc2C12CCN(c1ccc(Cl)nn1)CC2 = 57

###

Assay: Stability in human liver microsomes assessed as percentage of compound metabolized at 5 uM after 15 mins
Format: ADME, Microsome
Settings: liver microsomes, read-out: Drug metabolism
Overview of recorded metabolised at 0.25 h, 5 µM for various compounds
In your response, the unit should come after the numeric value.

Known results for compounds:
[
  {
    "smiles string": "O=C1Nc2ccccc2C12CCN(c1ccc(Cl)nn1)CC2",
    "measured metric": "metabolised at 0.25 h, 5 µM",
    "observed value": "45%"
  },
  {
    "smiles string": "CCOc1cc(N2CCC3(CC2)C(=O)Nc2ccc(Br)cc23)nnc1C(F)(F)F",
    "measured metric": "metabolised at 0.25 h, 5 µM",
    "observed value": "9%"
  },
  {
    "smiles string": "O=C1Nc2ccc(Br)cc2C12CCN(c1ccc(C(F)(F)F)nn1)CC2",
    "measured metric": "metabolised at 0.25 h, 5 µM",
    "observed value": "4%"
  },
  {
    "smiles string": "O=C1Nc2ccc(F)cc2C12CCN(c1ccc(Cl)nn1)CC2",
    "measured metric": "metabolised at 0.25 h, 5 µM",
    "observed value": "11%"
  },
  {
    "smiles string": "CCNc1cc(N2CCC3(CC2)C(=O)Nc2ccc(Br)cc23)nnc1Cl",
    "measured metric": "metabolised at 0.25 h, 5 µM",
    "observed value": "8%"
  }
]

# metabolised at 0.25 h, 5 µM of CCNc1cc(N2CC(n3c(=O)[nH]c4ccccc43)C2)nnc1Cl = 0%

# metabolised at 0.25 h, 5 µM of CCOc1ccc(N2CCC3(CC2)C(=O)Nc2ccc(Br)cc23)nn1 = 7%

# metabolised at 0.25 h, 5 µM of CCNc1cc(N2CC(n3c(=O)[nH]c4ccc(Br)cc43)C2)nnc1Cl = 9%

# metabolised at 0.25 h, 5 µM of O=C1Nc2ccc(Br)cc2C12CCN(c1ccc(Cl)nn1)CC2 = 8%

###

Test: Drug concentration in Sprague-Dawley rat brain at 30 mg/kg, po after 2 hrs
Format: ADME, organism-based
Conditions: read-out: Drug uptake
measured metric: concentration at 2 h (ng/g)
# unit: ng/g | format: bare number

Known results for compounds:
[
  {
    "smiles string": "CCOc1cc(N2CC(n3c(=O)[nH]c4ccccc43)C2)ncc1Cl",
    "concentration at 2 h / ng/g": 2050
  },
  {
    "smiles string": "CCOc1cc(N2CC(n3c(=O)[nH]c4cc(C(F)(F)F)ccc43)C2)ncc1Cl",
    "concentration at 2 h / ng/g": 371
  }
]

# context switch: different compound, same concentration at 2 h
# concentration at 2 h of CCNc1cc(N2CC(n3c(=O)[nH]c4ccccc43)C2)nnc1Cl = 48

###

Test system: CHO
Assay: Positive allosteric modulation of mGlu2 receptor in CHO cell membranes at 1 uM preincubated for 30 mins in presence of 4 uM glutamate followed by [35S]GTPgammaS addition and measured after 30 mins by scintillation counting analysis
Conditions: Cricetulus griseus
Rule: Activity of 80% or more gives condition met; anything lower gives condition not met.

Ask: Does the reported Activity for O=C1Nc2cc(Br)ccc2C12CCN(c1ccc(Cl)nn1)CC2 fall at or above the 80% mark?
Reply: condition not met

Ask: Does the reported Activity for O=C1Nc2c(Br)cccc2C12CCN(c1ccc(Cl)nn1)CC2 fall at or above the 80% mark?
Reply: condition not met

Ask: Does the reported Activity for O=C1Nc2ccc(Br)cc2C12CCN(c1ccc(C(F)(F)F)nn1)CC2 fall at or above the 80% mark?
Reply: condition not met

Ask: Does the reported Activity for O=C1Nc2ccc(C3CC3)cc2C12CCN(c1ccc(Cl)nn1)CC2 fall at or above the 80% mark?
Reply: condition met

Ask: Does the reported Activity for CCOc1cc(N2CCC3(CC2)C(=O)Nc2ccc(Br)cc23)nnc1C(F)(F)F fall at or above the 80% mark?
Reply: condition met

Ask: Does the reported Activity for O=C1Nc2ccc(Br)cc2C12CCN(c1ccc(Cl)nn1)CC2 fall at or above the 80% mark?
Reply: condition met

Ask: Does the reported Activity for Cc1ccc(N2CCC3(CC2)C(=O)Nc2ccc(Br)cc23)nn1 fall at or above the 80% mark?
Reply: condition not met

Ask: Does the reported Activity for CCOc1cc(N2CCC3(CC2)C(=O)Nc2ccc(Br)cc23)nnc1Cl fall at or above the 80% mark?
Reply: condition met

###

Tested on: CHO
Assay: Positive allosteric modulation of mGlu2 receptor in CHO cell membranes preincubated for 30 mins in presence of 4 uM glutamate followed by [35S]GTPgammaS addition and measured after 30 mins by scintillation counting analysis relative to control
Conditions: Cricetulus griseus
Overview of recorded Emax for various compounds
# unit: % | format: bare number

[
  {
    "smiles string": "CCNc1cc(N2CC(n3c(=O)[nH]c4ccc(Br)cc43)C2)nnc1Cl",
    "measured metric": "Emax",
    "observed value": 241
  },
  {
    "smiles string": "O=C1Nc2ccc(F)cc2C12CCN(c1ccc(Cl)nn1)CC2",
    "measured metric": "Emax",
    "observed value": 184
  },
  {
    "smiles string": "CCOc1cc(N2CCC3(CC2)C(=O)Nc2ccc(Br)cc23)nnc1Cl",
    "measured metric": "Emax",
    "observed value": 380
  }
]

# context switch: different compound, same Emax
# Emax of O=C1Nc2cc(Br)ccc2C12CCN(c1ccc(Cl)nn1)CC2 = 183

###

Test: Stability in rat liver microsomes assessed as percentage of compound metabolized at 5 uM after 15 mins
Type: ADME, Microsome
Conditions: liver microsomes, read-out: Drug metabolism
Lab note - cut at 80% for metabolised at 0.25 h, 5 µM: True if strictly below, False if not.

[
  {
    "smiles string": "CCOc1cc(N2CCC3(CC2)C(=O)Nc2ccc(Br)cc23)nnc1Cl",
    "discrete label": "True"
  },
  {
    "smiles string": "O=C1Nc2ccccc2C12CCN(c1ccc(Cl)nn1)CC2",
    "discrete label": "False"
  },
  {
    "smiles string": "Cc1ccc(N2CCC3(CC2)C(=O)Nc2ccc(Br)cc23)nn1",
    "discrete label": "True"
  },
  {
    "smiles string": "CCNc1cc(N2CC(n3c(=O)[nH]c4ccccc43)C2)ncc1Cl",
    "discrete label": "False"
  },
  {
    "smiles string": "CCNc1cc(N2CC(n3c(=O)[nH]c4ccccc43)C2)nnc1Cl",
    "discrete label": "True"
  }
]

Switching to the query record.
Ask: metabolised at 0.25 h, 5 µM strictly < 80% for this compound? O=C1Nc2ccc(Cl)cc2C12CCN(c1ccc(Cl)nn1)CC2
Reply: True
